Assayed System: frog AHR1β A354S mutant (Xenopus laevis, UniProt Q4QY30, A354S)
Assay Overview: Transactivation
Type: cell-based
Conditions: read-out: EC50 for reporter gene induction; FICZ, (3 hr), COS-7 cells, A354S
Endpoint: EC50 (pM)

| Molecule | Endpoint | Measurement Unit | Observed |
| --- | --- | --- | --- |
| O=Cc1c2[nH]c3ccccc3c2cc2[nH]c3ccccc3c12 [FICZ, 6-formylindolo[3,2b]carbazole] | EC50 | pM | 40 |

###

Assayed System: frog AHR1β N325S mutant (Xenopus laevis, UniProt Q4QY30, N325S)
Assay Overview: Transactivation
Format: cell-based
Conditions: read-out: EC50 for reporter gene induction; FICZ, (3 hr), COS-7 cells, N325S

| Compound | EC50 |
| --- | --- |
| O=Cc1c2[nH]c3ccccc3c2cc2[nH]c3ccccc3c12 [FICZ, 6-formylindolo[3,2b]carbazole] | 70 pM |

###

Assayed System: frog AHR1β S263P mutant (Xenopus laevis, UniProt Q4QY30, S263P)
Sequence (Q4QY30 1-834 S263P): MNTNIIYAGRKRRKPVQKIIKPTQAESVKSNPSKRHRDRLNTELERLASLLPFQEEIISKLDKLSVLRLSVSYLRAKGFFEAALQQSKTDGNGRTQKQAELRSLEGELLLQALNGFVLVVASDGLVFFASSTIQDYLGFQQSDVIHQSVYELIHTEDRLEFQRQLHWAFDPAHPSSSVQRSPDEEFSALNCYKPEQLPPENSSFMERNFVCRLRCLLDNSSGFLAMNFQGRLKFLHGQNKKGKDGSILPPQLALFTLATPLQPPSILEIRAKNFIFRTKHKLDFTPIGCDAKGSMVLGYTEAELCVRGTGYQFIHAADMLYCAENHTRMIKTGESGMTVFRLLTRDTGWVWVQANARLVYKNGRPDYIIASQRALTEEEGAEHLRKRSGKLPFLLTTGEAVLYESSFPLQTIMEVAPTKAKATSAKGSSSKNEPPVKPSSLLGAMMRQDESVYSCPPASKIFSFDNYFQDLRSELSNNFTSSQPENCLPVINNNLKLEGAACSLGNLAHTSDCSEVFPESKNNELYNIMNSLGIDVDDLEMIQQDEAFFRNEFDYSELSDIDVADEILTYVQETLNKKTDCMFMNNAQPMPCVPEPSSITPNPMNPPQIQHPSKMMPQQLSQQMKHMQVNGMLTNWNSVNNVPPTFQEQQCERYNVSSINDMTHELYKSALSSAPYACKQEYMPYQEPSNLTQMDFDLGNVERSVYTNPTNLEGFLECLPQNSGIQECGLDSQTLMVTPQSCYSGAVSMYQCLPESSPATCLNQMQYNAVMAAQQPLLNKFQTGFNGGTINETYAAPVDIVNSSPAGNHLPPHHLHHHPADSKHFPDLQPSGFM
Sequence (Q6P6Z6 1-765 partner): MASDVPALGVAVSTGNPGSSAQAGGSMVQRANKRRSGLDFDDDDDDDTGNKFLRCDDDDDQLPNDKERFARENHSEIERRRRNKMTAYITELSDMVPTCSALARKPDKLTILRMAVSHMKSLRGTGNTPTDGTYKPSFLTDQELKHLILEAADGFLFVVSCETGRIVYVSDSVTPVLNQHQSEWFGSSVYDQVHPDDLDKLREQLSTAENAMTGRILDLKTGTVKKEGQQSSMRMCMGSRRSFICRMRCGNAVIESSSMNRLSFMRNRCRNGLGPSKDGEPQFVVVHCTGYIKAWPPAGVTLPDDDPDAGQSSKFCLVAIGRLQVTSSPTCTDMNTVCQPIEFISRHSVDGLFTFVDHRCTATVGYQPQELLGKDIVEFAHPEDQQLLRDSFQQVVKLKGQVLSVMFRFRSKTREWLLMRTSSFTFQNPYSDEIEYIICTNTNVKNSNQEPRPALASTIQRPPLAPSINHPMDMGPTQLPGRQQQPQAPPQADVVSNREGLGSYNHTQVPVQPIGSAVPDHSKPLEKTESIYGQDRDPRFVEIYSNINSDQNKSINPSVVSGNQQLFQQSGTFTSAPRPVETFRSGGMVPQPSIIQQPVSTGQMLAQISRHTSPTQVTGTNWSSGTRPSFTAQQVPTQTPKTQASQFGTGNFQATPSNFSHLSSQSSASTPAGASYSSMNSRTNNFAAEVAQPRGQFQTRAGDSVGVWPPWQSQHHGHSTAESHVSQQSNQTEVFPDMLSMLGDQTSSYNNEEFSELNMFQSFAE
Assay Overview: Transactivation
pEC50: −log10 of the molar value.
Endpoint: pEC50

| Compound | Endpoint | Observed |
| --- | --- | --- |
| Clc1cc2c(cc1Cl)Oc1cc(Cl)c(Cl)cc1O2 [TCDD, 2,3,7,8-tetrachlorodibenzo-p-dioxin] | pEC50 | 7.63 |

###

Assayed System: frog AHR1β A370S mutant (Xenopus laevis, UniProt Q4QY30, A370S)
Sequence (Q4QY30 1-834 A370S, one chain of several): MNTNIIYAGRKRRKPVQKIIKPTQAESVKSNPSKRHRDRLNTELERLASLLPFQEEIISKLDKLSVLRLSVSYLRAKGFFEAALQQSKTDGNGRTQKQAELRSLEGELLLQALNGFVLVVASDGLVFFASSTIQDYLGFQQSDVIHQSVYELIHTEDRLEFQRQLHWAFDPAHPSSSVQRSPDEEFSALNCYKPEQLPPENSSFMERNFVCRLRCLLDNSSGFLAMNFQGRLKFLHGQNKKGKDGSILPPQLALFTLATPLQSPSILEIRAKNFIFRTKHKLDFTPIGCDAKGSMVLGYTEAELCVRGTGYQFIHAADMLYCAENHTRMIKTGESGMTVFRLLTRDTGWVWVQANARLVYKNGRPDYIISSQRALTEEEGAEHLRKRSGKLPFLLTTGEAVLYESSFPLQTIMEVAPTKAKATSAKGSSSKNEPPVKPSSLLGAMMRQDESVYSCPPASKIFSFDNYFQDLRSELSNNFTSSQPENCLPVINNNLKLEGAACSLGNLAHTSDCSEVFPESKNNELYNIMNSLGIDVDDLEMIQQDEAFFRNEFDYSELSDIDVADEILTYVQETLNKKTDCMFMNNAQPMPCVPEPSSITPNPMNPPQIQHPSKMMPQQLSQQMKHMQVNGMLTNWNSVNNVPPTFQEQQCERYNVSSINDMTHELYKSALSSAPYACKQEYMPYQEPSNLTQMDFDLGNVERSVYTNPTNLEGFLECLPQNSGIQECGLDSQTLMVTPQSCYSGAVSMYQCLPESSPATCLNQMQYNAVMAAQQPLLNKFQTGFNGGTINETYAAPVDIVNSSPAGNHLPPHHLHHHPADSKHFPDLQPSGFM
Assay Overview: Transactivation
Assay type: cell-based

| Compound | EC50 / nM |
| --- | --- |
| Clc1cc2c(cc1Cl)Oc1cc(Cl)c(Cl)cc1O2 [TCDD, 2,3,7,8-tetrachlorodibenzo-p-dioxin] | 1 |

###

Assayed System: frog AHR1β T256A mutant (Xenopus laevis, UniProt Q4QY30, T256A)
Sequence (Q4QY30 1-834 T256A): as the sequence (Q4QY30 1-834 S263P) above, with T256A, P263S counted along it
Sequence (Q6P6Z6 1-765 partner): as the sequence (Q6P6Z6 1-765 partner) above
Assay Overview: Transactivation
pEC50: −log10 of the molar value.
Endpoint: pEC50

| Smiles Code | Observed |
| --- | --- |
| Clc1cc2c(cc1Cl)Oc1cc(Cl)c(Cl)cc1O2 | 7.64 |
